Values from paper PMC8639918

Biological target: SPX1^1–259 (Oryza sativa, UniProt Q69XJ0)
Construct: residues 1-259 (C-terminally truncated), N-terminal 10xHis-MsyB tag cut with TEV, E. coli BL21(DE3), monomer
Experiment: ITC
Details: 25 °C; 20 mM HEPES/NaOH pH 7.5, 200 mM NaCl, 2 mM beta-mercaptoethanol
From the text: ITC on SPX1^1–259 | In contrast to the moderate InsP6 binding ability of the wild-type protein
READOUT LABEL: Kd (µM)

# MOLECULE SMILES, UNITS LABEL, NUMERIC VALUE
measured = [
    ("O=P(O)(O)O[C@H]1[C@H](OP(=O)(O)O)[C@@H](OP(=O)(O)O)[C@H](OP(=O)(O)O)[C@@H](OP(=O)(O)O)[C@H]1OP(=O)(O)O", "µM", 5.5),
]

====

Target: SPX1^1–259 (Oryza sativa, UniProt Q69XJ0, K147A)
Construct: residues 1-259 (C-terminally truncated), N-terminal 10xHis-MsyB tag cut with TEV, E. coli BL21(DE3), monomer
Sequence (Q69XJ0 1-259 K147A): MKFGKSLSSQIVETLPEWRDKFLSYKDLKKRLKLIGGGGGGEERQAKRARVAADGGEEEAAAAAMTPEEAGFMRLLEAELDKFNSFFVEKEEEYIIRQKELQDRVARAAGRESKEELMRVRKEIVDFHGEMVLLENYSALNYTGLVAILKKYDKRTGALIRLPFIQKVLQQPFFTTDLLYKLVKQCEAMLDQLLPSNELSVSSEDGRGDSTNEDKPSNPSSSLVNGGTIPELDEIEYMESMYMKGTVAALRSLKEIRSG
Assay: ITC
pKd: −log10 of the molar value.

# MOLECULE SMILES, pKd
measured = [
    ("O=P(O)(O)O[C@H]1[C@H](OP(=O)(O)O)[C@@H](OP(=O)(O)O)[C@H](OP(=O)(O)O)[C@@H](OP(=O)(O)O)[C@H]1OP(=O)(O)O", 5.24),
]

====

biological target: SPX1^1–259▵N17 (Oryza sativa, UniProt Q69XJ0); construct: SPX1 1-259 without the N-terminal helix alpha1 (deltaN17, residues 1-17 deleted), N-terminal 10xHis-MsyB tag cut with TEV, E. coli BL21(DE3); test: ITC; conditions: 25 °C; 20 mM HEPES/NaOH pH 7.5, 200 mM NaCl, 2 mM beta-mercaptoethanol

# MOLECULE SMILES, UNITS LABEL, Kd
data = [
    ("O=P(O)(O)O[C@H]1[C@H](OP(=O)(O)O)[C@@H](OP(=O)(O)O)[C@H](OP(=O)(O)O)[C@@H](OP(=O)(O)O)[C@H]1OP(=O)(O)O", "µM", 34.1),
]
